systemUnderTest: Platelet glycoprotein 4 (Homo sapiens, UniProt P16671)
Sequence (P16671 whole entry): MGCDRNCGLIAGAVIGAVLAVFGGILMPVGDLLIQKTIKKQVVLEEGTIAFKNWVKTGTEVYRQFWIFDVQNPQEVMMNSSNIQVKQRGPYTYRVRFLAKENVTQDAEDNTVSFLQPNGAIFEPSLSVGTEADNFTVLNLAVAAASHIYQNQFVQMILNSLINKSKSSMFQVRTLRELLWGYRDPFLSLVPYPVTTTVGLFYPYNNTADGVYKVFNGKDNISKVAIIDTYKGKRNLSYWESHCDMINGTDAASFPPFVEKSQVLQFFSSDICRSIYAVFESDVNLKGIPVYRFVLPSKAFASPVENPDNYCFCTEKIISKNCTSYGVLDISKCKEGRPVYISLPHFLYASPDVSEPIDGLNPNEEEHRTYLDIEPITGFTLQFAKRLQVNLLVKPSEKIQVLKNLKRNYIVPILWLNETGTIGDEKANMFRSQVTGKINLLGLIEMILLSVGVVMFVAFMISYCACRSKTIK
experimentalDetails: Antagonist activity at human CD36-oxLDL binding at 10 ug/mL after 2 hrs by ELISA
assayMetric: inhibition (%)
Give the value, in units of %, as a plain number.

Consider the worked cases shown below.
compoundStructureString: COc1cc2cc[n+](CCc3ccccc3)cc2cc1OC
recordedResult: 10
//
compoundStructureString: COc1cc2c[n+](CCc3cccc(Cl)c3)c(O)cc2cc1O
recordedResult: 33.2
//
compoundStructureString: Oc1ccc2cc[n+](CCc3cccc(C(F)(F)F)c3)cc2c1
recordedResult: 48.4
//
compoundStructureString: COc1ccc(CC[n+]2ccc3cc(O)c(OC)cc3c2)cc1
recordedResult: 76.3
//
compoundStructureString: COc1ccc2cc[n+](CCc3ccccc3)cc2c1O
recordedResult: 77.9
//
compoundStructureString: COc1ccc2cc[n+](CCc3cccc(F)c3)cc2c1OC
recordedResult: 52.1
//
compoundStructureString: COc1cc2c[n+](CCc3cccc(Cl)c3)ccc2cc1O
recordedResult: 33.6
//
compoundStructureString: COc1cc2c[n+](CCc3ccccc3)ccc2cc1O
recordedResult: 31

inhibition for COc1ccc2cc[n+](CCc3ccccc3)cc2c1 is 47.4

Looking up COc1ccc2cc[n+](CCc3ccc(F)cc3)cc2c1O , I see its inhibition listed as 29.6

So for Oc1ccc2cc[n+](CCc3ccccc3F)cc2c1 , the logged inhibition turned out to be 21.7

The molecule listed as COc1ccc(CC[n+]2ccc3ccc(O)cc3c2)cc1 has a reported inhibition of 28.7

Sample COc1ccc(CC[n+]2ccc3cc(OC)c(OC)cc3c2)cc1 ; inhibition observed: 28.6

Recorded inhibition (molecule COc1ccc2cc[n+](CCc3ccccc3C)cc2c1OC ): 46.6

For this molecule ( COc1cc2cc[n+](CCc3cccc(F)c3)cc2cc1OC ), measured inhibition is 20.9

Field inhibition (entry COc1ccc2cc[n+](CCc3ccc(Cl)cc3)cc2c1OC ) reads 25.4

Notebook: COc1ccc2cc[n+](CCc3ccccc3C)cc2c1O , inhibition read as 11.5

The value of inhibition measured for the molecule COc1cc2c[n+](CCc3ccc(F)cc3)ccc2cc1O turned out to be 42.4
